Test system: Mycobacterium tuberculosis
Assay info: Antimycobacterial activity against Mycobacterium tuberculosis H37Rv by agar dilution method
Type: functional

{"Molecule": "O=C(NN1C(=O)CCSC1c1ccc(Br)cc1)c1ccncc1 (stereo unspecified)", "System tested": "Mycobacterium tuberculosis", "Unit text": "µM", "MIC": 0.5}
{"Molecule": "O=C(NN1C(=O)CCSC1c1ccccc1F)c1ccncc1 (stereo unspecified)", "System tested": "Mycobacterium tuberculosis", "Unit text": "µM", "MIC": 0.6}
{"Molecule": "Cc1ccc(C2SCCC(=O)N2NC(=O)c2ccncc2)cc1 (stereo unspecified)", "System tested": "Mycobacterium tuberculosis", "Unit text": "µM", "MIC": 9.56}
{"Molecule": "O=C(NN1C(=O)CCSC1c1ccc(OCc2ccccc2)cc1)c1ccncc1 (stereo unspecified)", "System tested": "Mycobacterium tuberculosis", "Unit text": "µM", "MIC": 0.12}
{"Molecule": "O=C(NN1C(=O)CCSC1c1cccc(O)c1)c1ccncc1 (stereo unspecified)", "System tested": "Mycobacterium tuberculosis", "Unit text": "µM", "MIC": 9.49}
{"Molecule": "C/C(=N/NC(=O)c1ccncc1)c1cccc(CN2CCNCC2)c1O", "System tested": "Mycobacterium tuberculosis", "Unit text": "µM", "MIC": 0.56}
{"Molecule": "O=C(NN1C(=O)CCSC1c1ccc(O)cc1)c1ccncc1 (stereo unspecified)", "System tested": "Mycobacterium tuberculosis", "Unit text": "µM", "MIC": 18.9}
{"Molecule": "O=C(NN1C(=O)CCSC1c1ccccc1O)c1ccncc1 (stereo unspecified)", "System tested": "Mycobacterium tuberculosis", "Unit text": "µM", "MIC": 19}
{"Molecule": "COc1cc(C2SCCC(=O)N2NC(=O)c2ccncc2)cc(OC)c1OC (stereo unspecified)", "System tested": "Mycobacterium tuberculosis", "Unit text": "µM", "MIC": 7.76}
{"Molecule": "Cc1ccccc1C1SCCC(=O)N1NC(=O)c1ccncc1 (stereo unspecified)", "System tested": "Mycobacterium tuberculosis", "Unit text": "µM", "MIC": 9.56}
